The entries below are paired with their reported Qy(0,0) absorption λ.
assay: Photophysical measurements; type: physicochemical; conditions: aerated methanol
Numeric answer only, unit nm assumed.

Some molecules with known Qy(0,0) absorption λ results, for comparison:
>>> recorded_value("COCCOCCOCCOCCNCc1cc(CNCCOCCOCCOCCOC)cc(-c2c3nc(cc4[nH]c(cc4-c4ccc(C)cc4)c(OC)c4nc(cc5[nH]c2cc5-c2ccc(C)cc2)C(C)(C)C4)C(C)(C)C3)c1 [Compound 1]")
732
>>> recorded_value("CC1(C)Cc2cc3[nH]c(cc4nc(cc5[nH]c(cc1n2)cc5CN(CCO)CCO)CC4(C)C)cc3CN(CCO)CCO [Compound 6]")
718
>>> recorded_value("COCCN(CCOC)C(=O)c1cc2cc3nc(cc4[nH]c(cc5nc(cc1[nH]2)CC5(C)C)cc4C(=O)N(CCOC)CCOC)CC3(C)C [Compound 12]")
727

For this molecule ( CC1(C)Cc2cc3[nH]c(cc4nc(cc5[nH]c(cc1n2)cc5C#CC[N+](C)(C)C)CC4(C)C)cc3C#CC[N+](C)(C)C.[Cl-].[Cl-] [Compound 5] ), measured Qy(0,0) absorption λ is 749

For this molecule ( CC1(C)Cc2cc3[nH]c(cc4nc(cc5[nH]c(cc1n2)cc5C(=O)NCCN)CC4(C)C)cc3C(=O)NCCN [Compound 8] ), measured Qy(0,0) absorption λ is 742

For this molecule ( CC1(C)Cc2cc3[nH]c(cc4nc(cc5[nH]c(cc1n2)cc5C(=O)N(CCN)CCN)CC4(C)C)cc3C(=O)N(CCN)CCN [Compound 9] ), measured Qy(0,0) absorption λ is 729

For this molecule ( CC1(C)Cc2cc3[nH]c(cc4nc(cc5[nH]c(cc1n2)cc5C(=O)/C=C/c1cc(O)cc(O)c1)CC4(C)C)cc3C(=O)/C=C/c1cc(O)cc(O)c1 [Compound 11] ), measured Qy(0,0) absorption λ is 781

For this molecule ( CC1(C)Cc2cc3[nH]c(cc4nc(cc5[nH]c(cc1n2)cc5C(=O)N1CC[N+](C)(C)CC1)CC4(C)C)cc3C(=O)N1CC[N+](C)(C)CC1.[Cl-].[Cl-] [Compound 10] ), measured Qy(0,0) absorption λ is 731

For this molecule ( CC1(C)Cc2cc3[nH]c(cc4nc(cc5[nH]c(cc1n2)cc5-c1cc(O)cc(O)c1)CC4(C)C)cc3-c1cc(O)cc(O)c1 [Compound 4] ), measured Qy(0,0) absorption λ is 732

For this molecule ( CC1(C)Cc2cc3[nH]c(cc4nc(cc5[nH]c(cc1n2)cc5C(=O)O)CC4(C)C)cc3C(=O)O [Compound 7] ), measured Qy(0,0) absorption λ is 734

For this molecule ( CC1(C)Cc2cc3[nH]c(cc4nc(cc5[nH]c(cc1n2)cc5-c1cc(OCCO)cc(OCCO)c1)CC4(C)C)cc3-c1cc(OCCO)cc(OCCO)c1 [Compound 3] ), measured Qy(0,0) absorption λ is 732
